Literature compilation of pKi measurements on Neprilysin (Rattus norvegicus).
# TARGET UNDER TEST: Neprilysin (Rattus norvegicus)
# Sequence (P07861 whole entry): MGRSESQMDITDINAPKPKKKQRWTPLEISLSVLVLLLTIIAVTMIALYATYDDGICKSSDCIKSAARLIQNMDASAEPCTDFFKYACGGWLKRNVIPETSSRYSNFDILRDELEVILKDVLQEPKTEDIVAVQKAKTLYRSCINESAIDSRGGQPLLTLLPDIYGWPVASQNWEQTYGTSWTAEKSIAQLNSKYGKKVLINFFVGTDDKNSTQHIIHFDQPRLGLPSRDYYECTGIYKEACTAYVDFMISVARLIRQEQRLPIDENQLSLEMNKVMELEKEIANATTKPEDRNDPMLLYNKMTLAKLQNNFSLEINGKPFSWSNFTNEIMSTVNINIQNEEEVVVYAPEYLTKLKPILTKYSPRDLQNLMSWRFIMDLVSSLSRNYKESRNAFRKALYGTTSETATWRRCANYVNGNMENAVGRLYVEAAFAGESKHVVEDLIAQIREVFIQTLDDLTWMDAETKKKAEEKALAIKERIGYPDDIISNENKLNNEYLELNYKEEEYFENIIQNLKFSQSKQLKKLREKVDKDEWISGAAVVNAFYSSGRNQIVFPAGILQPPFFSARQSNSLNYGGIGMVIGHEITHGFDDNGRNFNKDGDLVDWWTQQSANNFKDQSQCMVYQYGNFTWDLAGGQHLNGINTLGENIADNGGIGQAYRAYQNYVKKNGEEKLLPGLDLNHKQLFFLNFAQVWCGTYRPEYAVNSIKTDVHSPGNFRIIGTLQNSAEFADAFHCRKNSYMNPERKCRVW
Answers are plain numbers, as −log10 of the molar value.

Record pKi for all entries; do not skip any.
1. O=C(CS)N[C@H]1Cc2ccccc2C2CCC[C@@H](C(=O)O)N2C1=O (stereo partly drawn)
2. COC(=O)[C@H](Cc1ccccc1)NC(=O)C1(CS)CCc2ccccc2C1 (stereo partly drawn)
3. O=C(CS)N[C@@H]1Cc2ccccc2C2CCC[C@H](C(=O)O)N2C1=O (stereo partly drawn)
4. CC(C)[C@H](NC(=O)C1(CS)CCc2ccccc2C1)C(=O)OCc1ccccc1 (stereo partly drawn)
5. O=C(N[C@H]1Cc2ccccc2[C@H]2CCC[C@@H](C(=O)O)N2C1=O)[C@H](S)Cc1ccccc1

Reply:
1. 8.30
2. 8.40
3. 8.30
4. 8.70
5. 10.15
